Ref: PubChem BioAssay AID1159580

# Measurement Notes: chemical genetic growth profiling, strain panel (AID 1159580);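 further: tested at 20 µM; growth read once vehicle control cultures reached saturation at 30 °C; 1 = growth at the plate median or of vehicle wells; lower values mean less growth of the strain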
# Details: S. cerevisiae deletion strains, growth OD, locus YNL197C, strain WHI3, active compounds read low
Among all 5,500 compounds or so, about 2,000 (36%) were called active. Another 18% or so got no clear call; they are omitted. The list shows a part of the results.
Readout Label: normalized growth
Would you mind answering with just the numeric figure?

I have this compound here, COC(=O)C1=C(C)NC(C)=C([N+](=O)[O-])C1c1ccccc1C(F)(F)F (stereo not drawn) , and I need its recorded normalized growth. 1.04

Would you mind doing `COc1ccc2c(c1OC)C(=O)O[C@@H]2[C@H]1c2c(cc3c(c2OC)OCO3)CCN1C` as well? 1.01

Would you mind doing `Cn1c(=O)c2[nH]c(C3CCCC3)nc2n(C)c1=O` as well? 0.935

Would you mind doing O=C(O)C1CN(CCCP(=O)(O)O)CCN1 (stereo not drawn) as well? 0.99

Would you mind doing COC(=O)C1=C(C)NC(C)=C(C(=O)OCCN(C)Cc2ccccc2)C1c1cccc([N+](=O)[O-])c1 (stereo not drawn) as well? 1.02

Would you mind doing `O=C(c1cc(O)c(O)c([N+](=O)[O-])c1)c1ccccc1F` as well? 0.97

Would you mind doing `Cc1ccc(C(=O)O[C@H](C(=O)O)[C@H](OC(=O)c2ccc(C)cc2)C(=O)O)cc1` as well? 1

Would you mind doing `O=c1[nH]c2cc(Cl)c(Cl)cc2[nH]c1=O` as well? 0.975

====

# Measurement Notes: chemical genetic growth profiling, strain panel (AID 1159580)
# Details: S. cerevisiae deletion strains, growth OD, locus YJL134W, strain LCB3, active compounds read low
The campaign covered roughly 5,500 compounds. About 2,000 (36%) were called active. About 18% were inconclusive and are not listed. The list shows a part of the results.
Answer each item with its documented normalized growth.
Would you mind answering with just the numeric figure?

I have this compound here, `Cc1cc2cc3c(C)cc(=O)oc3c(C)c2o1` , and I need its recorded normalized growth. 0.977

Would you mind doing `CC1=NCCc2c1[nH]c1cc(O)ccc21` as well? 0.986

Would you mind doing `O=C(O)/C=C(\CC(=O)O)C(=O)O` as well? 0.993

Would you mind doing `CC(=O)N(O)CCCCCNC(=O)CCC(=O)N(O)CCCCCNC(=O)CCC(=O)N(O)CCCCCN` as well? 1.01

Would you mind doing `COc1ccc(-c2cc(=O)c3c(OC)cccc3o2)cc1` as well? 1.04

Would you mind doing `O=C1c2c(O)ccc(O)c2C(=O)c2c(NCCNCCO)ccc(NCCNCCO)c21` as well? 1.04

Would you mind doing `CC(=O)Nc1ccc(OC(=O)c2ccccc2O)cc1` as well? 0.985

Would you mind doing `COc1cc([C@@H]2c3cc4c(cc3[C@H](O)[C@H]3COC(=O)[C@@H]23)OCO4)cc(OC)c1OC` as well? 0.986

Would you mind doing `CC(=O)Nc1ccc(O)cc1` as well? 0.981

Would you mind doing CC(=O)[C@H]1CCC2C3CC=C4C[C@@H](O)CC[C@]4(C)C3CC[C@@]21C (stereo partly drawn) as well? 1.01

Would you mind doing `NS(=O)(=O)c1cc2c(cc1C(F)(F)F)NCNS2(=O)=O` as well? 1.02

Would you mind doing `NCC(=O)CCC(=O)O` as well? 1.01

Would you mind doing `N[C@@H]1CONC1=O` as well? 1.01

====

# Measurement Notes: chemical genetic growth profiling, strain panel (AID 1159580);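 further: tested at 20 µM; growth read once vehicle control cultures reached saturation at 30 °C; 1 = growth at the plate median or of vehicle wells; lower values mean less growth of the strain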
# Details: S. cerevisiae deletion strains, growth OD, locus YOR070C, strain gyp1
The whole screen tested about 5,500 compounds, of which about 2,000 (36%) were called active. Not shown: some 18% with an inconclusive outcome. No stated cut-off is given here; in the data, active means normalized growth mostly below about 0.91 (no sharp cut-off); inconclusive means no clear call, values can overlap the other calls; inactive means mostly above about 0.92. The list shows a part of the results.
Could you please pick one outcome from this set? Yes for active, No for inactive

Dear all, I need the recorded test outcome for `CC(C)Oc1ccc2c(=O)cc(-c3ccccc3)oc2c1` , thank you. No

Would you mind doing `COc1ccc(-c2cc(=O)c3c(OC(C)=O)cc(OC(C)=O)cc3o2)cc1` as well? No

Would you mind doing CC1(C)O[C@@H]2CC3C4C[C@H](F)C5=CC(=O)C=C[C@]5(C)[C@@]4(F)[C@@H](O)C[C@]3(C)[C@]2(C(=O)CO)O1 (stereo partly drawn) as well? No

Would you mind doing `COc1cc2c3cc1Oc1cc(ccc1O)C[C@@H]1c4c(cc(OC)c(O)c4Oc4ccc(cc4)C[C@@H]3N(C)CC2)CC[N+]1(C)C` as well? No

Would you mind doing `CC(=O)Oc1ccc(-c2cc(=O)c3c(OC(C)=O)cc(OC(C)=O)cc3o2)cc1` as well? No

Would you mind doing `COc1cccc2c1cc([N+](=O)[O-])c1c(C(=O)O)cc3c(c12)OCO3` as well? No

Would you mind doing `CC(=O)Oc1cc(-c2coc3cc(OC(C)=O)c(OC(C)=O)c(OC(C)=O)c3c2=O)cc(OC(C)=O)c1OC(C)=O` as well? No

Would you mind doing `COc1ccc(-c2cc(=O)c3ccccc3o2)cc1` as well? Yes

Would you mind doing `O=c1c(-c2cc(O)c(O)c(O)c2)coc2cc(O)c(O)c(O)c12` as well? No

Would you mind doing `O=C(/C=C/c1ccccc1)c1ccc(O)cc1` as well? Yes

Would you mind doing CC(=O)OCC(=O)[C@H]1CCC2C3CC=C4C[C@@H](O)CC[C@]4(C)C3CC[C@@]21C (stereo partly drawn) as well? No

Would you mind doing `CCCCCCCCCc1ccc(O)cc1` as well? Yes

Would you mind doing CCCCOc1cc(CC2CNC(=O)N2)ccc1OC (stereo not drawn) as well? No

====

Answer each item with its documented normalized growth.
# Measurement Notes: chemical genetic growth profiling, strain panel (AID 1159580);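 further: tested at 20 µM; growth read once vehicle control cultures reached saturation at 30 °C; 1 = growth at the plate median or of vehicle wells; lower values mean less growth of the strain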
# Details: S. cerevisiae deletion strains, growth OD, locus YOR106W, strain vam3, active compounds read low
Hit rate of the full screen: of about 5,500 compounds, about 2,000 (36%) were called active. About 18% were inconclusive and are not listed. The list shows a part of the results.
Would you mind answering with just the numeric figure?

I have this compound here, CC(C)(O)[C@@H]1CC[C@](C)([C@H]2[C@@H](O)C[C@@]3(C)C4C[C@H](O[C@@H]5O[C@H](CO)[C@@H](O)[C@H](O)[C@H]5O)C5C(C)(C)[C@@H](O[C@@H]6OC[C@@H](O)[C@H](O)[C@H]6O)CC[C@@]56C[C@@]46CC[C@]23C)O1 (stereo not given in full) , and I need its recorded normalized growth. 0.99

Would you mind doing CCC(CCC(C)[C@H]1CCC2C3CC=C4C[C@@H](O)CC[C@]4(C)C3CC[C@@]21C)C(C)C (stereo not given in full) as well? 1.02

Would you mind doing `O=C1CN2Cc3c(ccc(Cl)c3Cl)N=C2N1` as well? 0.991

Would you mind doing CC1(C)O[C@@H]2CC3C4C[C@H](F)C5=CC(=O)C=CC5(C)C4C(O)CC3(C)[C@]2(C(=O)CO)O1 (stereo not given in full) as well? 0.976

Would you mind doing `CCCN1C[C@H](CSC)C[C@@H]2c3cccc4[nH]cc(c34)C[C@H]21` as well? 1.01

Would you mind doing CC(C(=O)O)[C@H]1CCC2C3CC=C4C[C@@H](O)CC[C@]4(C)C3CC[C@@]21C (stereo not given in full) as well? 1.01

Would you mind doing CC(=O)OCC(=O)[C@@]1(O)CCC2C3CC[C@@H]4C[C@H](O)CC[C@]4(C)C3C(=O)C[C@@]21C (stereo not given in full) as well? 1.02

Would you mind doing `CN(C)CC/C=C1/c2ccccc2COc2ccccc21` as well? 1.02

Would you mind doing `O=c1[nH]c2cc(Cl)c(Cl)cc2[nH]c1=O` as well? 1.01

Would you mind doing CCC(/C=C/[C@@H](C)[C@H]1CCC2C3CC=C4C[C@@H](O)CC[C@]4(C)C3CC[C@@]21C)C(C)C (stereo not given in full) as well? 0.999

====

# Measurement Notes: chemical genetic growth profiling, strain panel (AID 1159580);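 further: tested at 20 µM; growth read once vehicle control cultures reached saturation at 30 °C; 1 = growth at the plate median or of vehicle wells; lower values mean less growth of the strain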
# Details: S. cerevisiae deletion strains, growth OD, locus YPR167C, strain met16, active compounds read low
In all, about 5,500 compounds went through this assay and about 2,000 (36%) were called active. Another 18% or so got no clear call; they are omitted. This is one part of the list.
Answer each item with its documented normalized growth.
Would you mind answering with just the numeric figure?

I have this compound here, `O=c1c(-c2ccccc2)coc2cc(O)cc(O)c12` , and I need its recorded normalized growth. 0.815

Would you mind doing `CCn1cc(C(=O)O)c(=O)c2cc(F)c(N3CCNCC3)cc21` as well? 1.01

Would you mind doing CCC(CCC(C)[C@H]1CCC2C3CC=C4C[C@@H](O)CC[C@]4(C)C3CC[C@@]21C)C(C)C (stereo partly drawn) as well? 0.97

Would you mind doing `COc1ccc(-c2cc(=O)c3c(OC(C)=O)cc(OC(C)=O)cc3o2)cc1` as well? 0.946

Would you mind doing CC(=O)O[C@H]1C[C@@]2(C)[C@H](c3ccoc3)OC(=O)[C@H]3O[C@]32[C@@]2(C)C1[C@]1(C)C(C[C@H]2OC(C)=O)C(C)(C)[C@H](OC(C)=O)C[C@@H]1OC(C)=O (stereo partly drawn) as well? 0.984

Would you mind doing `O=c1c2ccccc2[se]n1-c1ccccc1` as well? 0.0625

Would you mind doing `CC(=O)O.CC(=O)O.[Cd]` as well? 0.387

Would you mind doing `COC(=O)C1=C(C)NC(C)=C(C(=O)OC)C1c1ccccc1[N+](=O)[O-]` as well? 0.903

Would you mind doing CCC1C2CC3C4N(C)c5ccccc5C45CC(C2C5OC(C)=O)N3C1OC(C)=O (stereo not drawn) as well? 1.01

Would you mind doing `C[N+]1(CCCCC[N+]2(C)CCCC2)CCCC1` as well? 1.01

Would you mind doing `COc1ccc(-c2coc3cc(O)cc(O)c3c2=O)cc1` as well? 0.44

Would you mind doing `COc1cc2cc[n+]3cc4c(OC)c(OC)ccc4cc3c2cc1OC` as well? 0.984

Would you mind doing CCOC(=O)C1C(C=C(C)C)C1(C)C (stereo not drawn) as well? 1.03

Would you mind doing `CCCCCCCCCCCCCCCC[n+]1ccccc1` as well? 0.06

Would you mind doing `CC(C)c1ccc2c(c1O)CC[C@H]1C3=C(CC[C@]21C)C(=O)OC3` as well? 0.947

Would you mind doing `O=C1CC[C@]23C=CC(=O)NCCCCNCCCNC(=O)/C=C/c4ccc(c2c4)O[C@@H]3C1` as well? 0.985

Would you mind doing `Cc1coc2ccccc2c1=O` as well? 1.03

Would you mind doing CC[N+]1(C)CCCC(OC(=O)C(O)(c2ccccc2)c2ccccc2)C1 (stereo not drawn) as well? 1.01

Would you mind doing CCC(/C=C/[C@@H](C)[C@H]1CCC2C3CC=C4C[C@@H](O)CC[C@]4(C)C3CC[C@@]21C)C(C)C (stereo partly drawn) as well? 0.992

Would you mind doing `COc1c2c(cc3c1OCO3)CC[N+](C)=C2` as well? 1.01

Would you mind doing `N[C@@H]1CONC1=O` as well? 1.02

Would you mind doing `CN(N=O)C(=O)N[C@@H]1[C@@H](O)[C@H](O)[C@@H](CO)O[C@@H]1O` as well? 1.01

Would you mind doing `CC(=O)Oc1cc(-c2coc3cc(OC(C)=O)c(OC(C)=O)c(OC(C)=O)c3c2=O)cc(OC(C)=O)c1OC(C)=O` as well? 0.953
